Test system: Mus musculus
test.protocol: Anxiolytic activity in albino Mus musculus (mouse) assessed as increase in time spent on open arm at 100 mg/kg, ip administered 30 min prior to testing by elevated-plus maze test relative to control
Type: functional, organism-based
Parameters: dose 100 mg/kg
The source made the active and inactive calls. The calls are words filed in the database; no cut-off is given here.
Outcome (select one): class 1 for active, class 0 for inactive

- compound: "CC1(C)C=CC2=C(O1)C(=O)c1ccccc1C2=O"
  study.target: "Mus musculus"
  label.value: "class 0"
- compound: "CC[C@H](CC[C@@H](C)[C@H]1CC[C@H]2[C@@H]3CC=C4C[C@@H](O)CC[C@]4(C)[C@H]3CC[C@]12C)C(C)C [BETA-SITOSTEROL]"
  study.target: "Mus musculus"
  label.value: "class 0"
- compound: "CC(C)=CCC1=C(O)C(=O)c2ccccc2C1=O [LAPACHOL]"
  study.target: "Mus musculus"
  label.value: "class 0"

Next:
q: What did this assay record as the result for CC(O)c1cc2c(o1)C(=O)c1ccccc1C2=O (centres undefined) ?
a: class 1

The reported measurements were obtained from ChEMBL document CHEMBL3044573.
